B1: TPR 5TU (parent)
chain: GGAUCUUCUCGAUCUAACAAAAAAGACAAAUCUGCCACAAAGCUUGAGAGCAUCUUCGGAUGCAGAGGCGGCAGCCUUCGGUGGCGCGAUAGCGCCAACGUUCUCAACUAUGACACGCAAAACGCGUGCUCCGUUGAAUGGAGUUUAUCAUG

# Variants of: B1
# Method Description: polymerase ribozyme fitness, log enrichment relative to wild type (log ratio); higher = more active; in vitro selection for triplet polymerase activity
Fewer inactive variants are shown than the library holds.
Value Type: polymerase ribozyme fitness (log ratio)

Solved cases below.
# Mutation Descriptor, polymerase ribozyme fitness (log ratio)
data = [
    ("C43U C54U U56G U78C C85G C93G G133A G136U G140U", "≤ -4.2"),
    ("G34C U55G G65A", "≤ -4.2"),
]

Now let's try a different one.
Query block: # query: polymerase ribozyme fitness (log ratio) of entry A19U U61A G86U A107G A115U G152U
Result block: ≤ -4.2
